Reference source for all entries: ChEMBL document CHEMBL1153344

assay-procedure: Cytotoxicity against mouse Hepa-1c1c7 cells after 72 hrs by sulforhodamine B assay
Type: functional, cell-based
condition-label: Hepa-1c1c7, 72 h
recorded-endpoint: IC50

* Cc1cc(=O)[nH]c2ccccc12 | > 126 µM
* Cc1cc(=O)n(C)c2c3c(ccc12)OCO3 | > 92.1 µM
* COc1c(OC)c(OC)c2c(c(C)cc(=O)n2C)c1OC | > 68.2 µM
* COc1cc2c(C)cc(=O)n(C)c2c(OC)c1OC | > 76 µM
* COc1cc(OC)c2[nH]c(=O)cc(C)c2c1 | > 91.3 µM
* COc1ccc2c(C)cc(=O)[nH]c2c1OC | > 91.3 µM
* Cc1cc(=O)[nH]c2c3c(ccc12)OCO3 | > 98.5 µM
* Cc1cc(=O)n(C)c2c1C(=O)C=CC2=O | 54.1 µM
* COc1cc2c(C)cc(=O)[nH]c2c(OC)c1OC | > 80.3 µM
* COc1cccc2c(C)cc(=O)n(C)c12 | > 98.5 µM
* COc1c(OC)c(OC)c2c(C)cc(=O)[nH]c2c1OC | > 71.7 µM
* COc1cccc2c(C)cc(=O)[nH]c12 | > 106 µM
* Cc1cc(=O)n(C)c2ccccc12 | > 116 µM
* COc1cc(OC)c2[nH]c(=O)cc(C)c2c1OC | 34.5 µM
* COc1cc(OC)c2c(c(C)cc(=O)n2C)c1OC | 70.7 µM
* COc1ccc2c(C)cc(=O)n(C)c2c1OC | > 85.8 µM
* COc1ccc(OC)c2c1c(C)cc(=O)n2C | > 85.7 µM
* COc1ccc(OC)c2c(C)cc(=O)[nH]c12 | > 91.2 µM
* COc1cc(OC)c2c(c1)c(C)cc(=O)n2C | > 85.8 µM
* COc1cc(=O)n(C)c2c3c(ccc12)OCO3 [CASIMIROIN] | > 85.8 µM

----------
system-under-test: Ribosyldihydronicotinamide dehydrogenase [quinone] (Homo sapiens, UniProt P16083)
Sequence (P16083 whole entry): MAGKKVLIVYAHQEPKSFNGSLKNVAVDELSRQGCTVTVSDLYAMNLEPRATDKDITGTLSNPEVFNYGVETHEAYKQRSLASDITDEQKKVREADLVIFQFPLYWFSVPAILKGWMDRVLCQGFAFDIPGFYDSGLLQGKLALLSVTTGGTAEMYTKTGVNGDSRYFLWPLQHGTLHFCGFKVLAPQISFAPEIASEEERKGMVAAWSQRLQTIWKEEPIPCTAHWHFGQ
IC50 reference
recorded-endpoint: IC50 (µM)

* COc1ccc(OC)c2c1c(C)cc(=O)n2C | 4.1
* COc1cc2c(C)cc(=O)[nH]c2c(OC)c1OC | 10
* COc1cc2c(C)cc(=O)n(C)c2c(OC)c1OC | 7
* COc1ccc(OC)c2c(C)cc(=O)[nH]c12 | 10.8
* COc1cc(OC)c2[nH]c(=O)cc(C)c2c1OC | 6
* COc1ccc2c(C)cc(=O)n(C)c2c1OC | 9.3
* COc1cc(OC)c2c(c(C)cc(=O)n2C)c1OC | 10.8
* COc1cc(OC)c2[nH]c(=O)cc(C)c2c1 | 8.8

----------
system-under-test: Aromatase (Homo sapiens)
Sequence (P11511 whole entry): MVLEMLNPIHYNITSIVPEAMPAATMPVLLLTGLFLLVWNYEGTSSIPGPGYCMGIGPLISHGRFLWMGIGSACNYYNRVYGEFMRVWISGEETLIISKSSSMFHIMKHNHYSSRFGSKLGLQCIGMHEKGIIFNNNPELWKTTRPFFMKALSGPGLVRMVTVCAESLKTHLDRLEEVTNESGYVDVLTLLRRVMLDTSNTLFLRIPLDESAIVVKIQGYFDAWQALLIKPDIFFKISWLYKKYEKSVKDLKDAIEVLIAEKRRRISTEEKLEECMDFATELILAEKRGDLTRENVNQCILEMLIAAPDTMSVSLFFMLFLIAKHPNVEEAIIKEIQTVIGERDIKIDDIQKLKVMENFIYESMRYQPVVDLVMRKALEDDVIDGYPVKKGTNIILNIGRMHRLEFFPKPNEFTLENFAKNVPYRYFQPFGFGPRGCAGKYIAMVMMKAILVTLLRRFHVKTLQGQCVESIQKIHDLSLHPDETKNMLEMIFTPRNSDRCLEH
recorded-endpoint: log10 of IC50 (log10 of the value in µM)

• COc1ccc2c(C)cc(=O)[nH]c2c1OC = 1.50
• COc1ccc2c(C)cc(=O)n(C)c2c1OC = 0.76
• COc1cc(OC)c2c(c(C)cc(=O)n2C)c1OC = -1.00
• COc1cccc2c(C)cc(=O)n(C)c12 = 0.31
• COc1cc(OC)c2c(c1)c(C)cc(=O)n2C = -0.02
• COc1cc(=O)n(C)c2c3c(ccc12)OCO3 = 0.59
• COc1ccc(OC)c2c(C)cc(=O)[nH]c12 = 1.43
• COc1c(OC)c(OC)c2c(C)cc(=O)[nH]c2c1OC = 0.75
